- Target: UniProtKB P25774
- Method Summary: Cathepsin S inhibition, fluorogenic peptide substrate kinetic assay
- Assay type: biochemical
- Run Parameters: Table II; Cathepsin S inhibition constant, pH5.5; read-out: Ki Cat. S
Metric Name: Ki

May I ask what Ki has been recorded for C[C@@H](CNc1ccc(F)cc1)NC(=O)[C@H](CC1CCCCC1)NC(=O)c1ccc(-c2cccc(F)c2)o1 [Compound 126] ?
< 100 nM

May I ask what Ki has been recorded for O=C(N[C@@H](CC1CCCCC1)C(=O)NCCN1CCc2cc(F)ccc21)c1ccoc1 [Compound 13] ?
< 100 nM

May I ask what Ki has been recorded for O=C(NC(CCC1CCCCC1)C(=O)NC(COCc1ccccc1)CN1CCc2cc(F)ccc21)c1cc2ccccc2[nH]1 (mixture of isomers) [Compound 41] ?
< 100 nM

May I ask what Ki has been recorded for C[C@@H](CNc1ccc(OC(F)(F)F)cc1)NC(=O)[C@H](CC(C)(C)C)NC(=O)c1ccc(-c2cccc(F)c2)o1 [Compound 127] ?
< 100 nM

---

Form field: pKi (one value per entry).
- Target: Cathepsin S (Homo sapiens)
- Method Summary: Cathepsin S inhibition, fluorogenic peptide substrate kinetic assay
- Format: biochemical
- Run Parameters: Table III; Cathepsin S inhibition constant, pH5.5; read-out: Ki Cat. S
- Text: “Inhibition constant”, Ki, is the dissociation constant of the enzyme-inhibitor complex, or the reciprocal of the binding affinity of the inhibitor to the enzyme. […] The inhibited rates are then fit by nonlinear regression to the following equation: [formula] […] The inhibition constant, Ki, can be determined from the apparent inhibition constant, Ki^app, for competitive inhibitors by using the following relationship: [formula] […]
pKi: −log10 of the molar value.

Example cases with answers are listed next.
> print(dat)
                                   compound                      target  metric.name  result
1  Cc1cccc(C(=O)N[C@@H](CC2CCCCC2)C(=O)NCCN2CCc3cc(F)ccc32)c1 [Compound 71]  Cathepsin S (Homo sapiens)          pKi  > 7.00
2  COc1cccc(C(=O)N[C@@H](CC2CCCCC2)C(=O)N[C@@H](CN2CCOCC2)CN2CCc3cc(F)ccc32)c1 [Compound 151]  Cathepsin S (Homo sapiens)          pKi  > 7.00
3  Cc1ccccc1C(C)C(=O)N[C@@H](CC1CCCCC1)C(=O)NCCN1CCc2cc(F)ccc21 (stereo partly drawn) [Compound 61]  Cathepsin S (Homo sapiens)          pKi  > 7.00

Kindly state the measured pKi obtained for C[C@@H](CNc1ccc(OC(F)(F)F)cc1)NC(=O)[C@H](CC1CCCCC1)NS(=O)(=O)c1cccc(Cl)c1 [Compound 181] with Cathepsin S (Homo sapiens).
> 7.00

Kindly state the measured pKi obtained for Cc1cccc(C(=O)N[C@@H](CC2CCCC2)C(=O)NCCN2CCc3cc(F)ccc32)c1 [Compound 201] with Cathepsin S (Homo sapiens).
> 7.00

Kindly state the measured pKi obtained for COC(=O)c1ccc(COC[C@@H](CN2CCc3cc(F)ccc32)NC(=O)[C@H](CCC2CCCCC2)NC(=O)c2cccc(OC)c2)cc1 [Compound 171] with Cathepsin S (Homo sapiens).
> 7.00

---

Form field: pKi (one value per entry).
- Target: Cathepsin S (Homo sapiens, UniProt P25774)
- Sequence (P25774 115-331, species assumed): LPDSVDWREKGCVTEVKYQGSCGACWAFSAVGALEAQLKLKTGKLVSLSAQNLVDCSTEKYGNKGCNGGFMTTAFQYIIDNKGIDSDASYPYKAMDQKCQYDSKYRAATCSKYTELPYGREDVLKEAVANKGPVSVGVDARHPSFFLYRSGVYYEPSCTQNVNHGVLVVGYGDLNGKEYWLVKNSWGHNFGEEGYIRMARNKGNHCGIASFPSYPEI
- Method Summary: Cathepsin S inhibition, fluorogenic peptide substrate kinetic assay
- Assay type: biochemical
- Run Parameters: Table II; Cathepsin S inhibition constant, pH5.5; read-out: Ki Cat. S
pKi: −log10 of the molar value.

Example cases with answers are listed next.
> print(dat)
                                   compound                                    target  result
1  CC(C)(C)C[C@H](NC(=O)c1ccc(-c2cccc(C(F)(F)F)c2)o1)C(=O)NCCN1CCc2cc(F)ccc21  Cathepsin S (Homo sapiens, UniProt P25774)  > 7.00
2  CSc1ccc(NC[C@H](C)NC(=O)[C@H](CC2CCCCC2)NC(=O)c2ccc(-c3cccc(F)c3)o2)cc1  Cathepsin S (Homo sapiens, UniProt P25774)  > 7.00
3  Cc1occ(C(F)(F)F)c1S(=O)(=O)N[C@@H](CC1CCCCC1)C(=O)N[C@@H](C)CN1CCc2cc(F)ccc21  Cathepsin S (Homo sapiens, UniProt P25774)  > 7.00
4  C[C@@H](CNc1ccc(S(N)(=O)=O)cc1)NC(=O)[C@H](CC1CCCCC1)NC(=O)c1ccc(-c2cccc(F)c2)o1  Cathepsin S (Homo sapiens, UniProt P25774)  > 6.00
5  O=C(N[C@@H](Cc1cccc(Cl)c1)C(=O)NCCN1CCc2cc(F)ccc21)c1ccc(-c2cccc(C(F)(F)F)c2)o1  Cathepsin S (Homo sapiens, UniProt P25774)  > 6.00

May I ask what pKi has been recorded for `Cc1cccc(C(=O)N[C@@H](Cc2ccc(Cl)cc2)C(=O)NCCN2CCc3cc(F)ccc32)c1` ?
> 7.00

May I ask what pKi has been recorded for `C[C@@H](CNc1ccc(S(C)(=O)=O)cc1)NC(=O)[C@H](CC(C)(C)C)NC(=O)c1ccc(-c2cccc(F)c2)o1` ?
> 7.00

May I ask what pKi has been recorded for `COc1c(C)cc(NC[C@H](C)NC(=O)[C@H](CC2CCCCC2)NC(=O)c2ccc(-c3cccc(F)c3)o2)cc1C` ?
> 7.00

May I ask what pKi has been recorded for `O=C(NCCN1CCc2cc(F)ccc21)[C@H](CC1CCCCC1)NS(=O)(=O)c1ccc(OC(F)(F)F)cc1` ?
> 6.00

May I ask what pKi has been recorded for CC(C(=O)N[C@@H](CC1CCCCC1)C(=O)NCCN1CCc2cc(F)ccc21)c1ccc(-c2ccccc2)c(F)c1 (some centres unmarked) ?
> 7.00

May I ask what pKi has been recorded for `C[C@@H](CNc1ccc(C(=O)N(C)C)cc1)NC(=O)[C@H](CC1CCCCC1)NC(=O)c1ccc(-c2cccc(F)c2)o1` ?
> 7.00

---

Each entry below carries its measured pKi, system: Cathepsin L (Homo sapiens, UniProt P07711).
Sequence (P07711 114-333, species assumed): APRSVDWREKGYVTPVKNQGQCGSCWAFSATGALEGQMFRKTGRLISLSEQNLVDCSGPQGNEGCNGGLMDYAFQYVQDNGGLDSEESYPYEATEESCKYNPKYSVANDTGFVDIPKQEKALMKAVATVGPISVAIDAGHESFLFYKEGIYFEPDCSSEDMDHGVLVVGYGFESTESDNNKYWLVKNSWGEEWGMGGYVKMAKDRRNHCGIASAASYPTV
pKi: −log10 of the molar value.

Example cases with answers are listed next.
> print(dat)
                               smiles.input                                    target  result
1  C[C@@H](CNc1ccc(OC(F)(F)F)cc1)NC(=O)[C@H](CC1CCCC1)NC(=O)O[C@@H]1CCOC1  Cathepsin L (Homo sapiens, UniProt P07711)  < 5.00
2  C[C@@H](CNc1ccc(OC(F)(F)F)cc1)NC(=O)[C@H](CC1CCCCC1)NC(=O)c1cnn(-c2cccc(F)c2)c1  Cathepsin L (Homo sapiens, UniProt P07711)  > 5.00
3  Cc1nn(C)c(Cl)c1S(=O)(=O)N[C@@H](CC1CCCCC1)C(=O)NCCN1CCc2cc(F)ccc21  Cathepsin L (Homo sapiens, UniProt P07711)  > 5.00

May I ask what pKi has been recorded for `CS(=O)(=O)Nc1ccc(C(=O)N[C@@H](CC2CCCCC2)C(=O)NCCN2CCc3cc(F)ccc32)cc1` ?
> 5.00

---

- Target: Cathepsin S (Homo sapiens)
- Method Summary: Cathepsin S inhibition, fluorogenic peptide substrate kinetic assay
- Format: biochemical
- Run Parameters: Table II; Cathepsin S inhibition constant, pH5.5; read-out: Ki Cat. S
Metric Name: Ki

Example cases with answers are listed next.
> print(dat)
                               smiles.input                      target      result
1  O=C(NCCN1CCc2cc(F)ccc21)[C@H](CC1CCCCC1)NS(=O)(=O)Cc1ccccc1  Cathepsin S (Homo sapiens)  < 10000 nM
2  Cc1cccc(C(=O)N[C@@H](CC2CCCC2)C(=O)NCCN2CCc3cc(F)ccc32)c1  Cathepsin S (Homo sapiens)    < 100 nM
3  C[C@@H](CNc1ccc(OC(F)(F)F)cc1)NC(=O)[C@H](CC1CCCCC1)NC(=O)c1cnn(-c2cccc(F)c2)c1  Cathepsin S (Homo sapiens)    < 100 nM

May I ask what Ki has been recorded for `O=C(NCCN1CCc2cc(F)ccc21)[C@H](CC1CCCCC1)NS(=O)(=O)c1cc2ccccc2s1` ?
< 1000 nM

May I ask what Ki has been recorded for `C[C@@H](CNc1cccc(OC(F)(F)F)c1)NC(=O)[C@H](CC1CCCCC1)NC(=O)c1ccc(-c2cccc(F)c2)o1` ?
< 100 nM

May I ask what Ki has been recorded for `Cc1noc(C)c1NC(=O)N[C@@H](CC1CCCCC1)C(=O)NCCN1CCc2cc(F)ccc21` ?
< 1000 nM

May I ask what Ki has been recorded for `C[C@@H](CNc1cccc(C(N)=O)c1)NC(=O)[C@H](CC(C)(C)C)NC(=O)c1ccc(-c2cccc(F)c2)o1` ?
< 100 nM

Recorded values, source patent US20040248887A1.
